assay_protocol: MRT (0 to infinity) in male Sprague-Dawley rat at 50 mg/kg, po measured after 24 hrs by LC-MS/MS analysis
Type: ADME, organism-based
measurement_context: in vivo
value_kind: MRT inf (h)
Give the quantity in h, number only.

[ask] Entry CCS(=O)(=O)n1cc(-c2nc(Nc3ccc(N4CCN(CCCCCCC(=O)Nc5cccc6c5CN(C5CCC(=O)NC5=O)C6=O)CC4)cc3)ncc2C(F)(F)F)c2ccccc21 (stereo unspecified) : reported MRT inf = ?
[reply] 21.4

---

assay_protocol: MRT (0 to infinity) in male Sprague-Dawley rat at 5 mg/kg, iv measured after 24 hrs by LC-MS/MS analysis
Assay type: ADME, organism-based
measurement_context: in vivo
value_kind: MRT inf (h)
Give the quantity in h, number only.

[ask] Entry CCS(=O)(=O)n1cc(-c2nc(Nc3ccc(N4CCN(CCCCCCC(=O)Nc5cccc6c5CN(C5CCC(=O)NC5=O)C6=O)CC4)cc3)ncc2C(F)(F)F)c2ccccc21 (stereo unspecified) : reported MRT inf = ?
[reply] 18.4
